- study.target: T1, human MSLN-R3-3 polypeptide (human)
- T1 construct: also called human MSLN-R3-3 protein; hMSLN-R3-3
- run.description: ELISA on coated antigen, antibody 0.1 nM
Consider the following binders; for each one, report its OD450.
Response body: numeric value in OD450, unit text excluded.

Inquiry: Requested read-out: OD450. Entry: S009-F2-56.12 (antibody, human IgG1, kappa, V domains shown, Human-murine chimeric antibody: murine VH/VL on human IgG1 heavy and kappa light constant regions) VH: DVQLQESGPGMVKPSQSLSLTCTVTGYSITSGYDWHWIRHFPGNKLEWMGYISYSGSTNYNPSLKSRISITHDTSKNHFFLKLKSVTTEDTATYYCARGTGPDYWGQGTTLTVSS VL: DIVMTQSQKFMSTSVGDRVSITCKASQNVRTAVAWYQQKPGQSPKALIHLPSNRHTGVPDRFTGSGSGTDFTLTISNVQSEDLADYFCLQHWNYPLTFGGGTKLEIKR
Reply text: 0.06

Inquiry: Again, but for S009-F2.16.10 (antibody, human IgG1, kappa, V domains shown, Human-murine chimeric antibody: murine VH/VL on human IgG1 heavy and kappa light constant regions) VH: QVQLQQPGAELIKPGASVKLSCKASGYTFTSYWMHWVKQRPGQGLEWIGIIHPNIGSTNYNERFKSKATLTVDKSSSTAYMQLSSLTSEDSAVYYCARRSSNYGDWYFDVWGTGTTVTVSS VL: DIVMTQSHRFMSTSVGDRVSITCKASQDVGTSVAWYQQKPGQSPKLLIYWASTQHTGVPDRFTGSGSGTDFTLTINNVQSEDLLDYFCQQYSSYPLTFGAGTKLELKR
Reply text: 0.05

Inquiry: Again, but for S009-F2.21.4 (antibody, human IgG1, kappa, V domains shown, Human-murine chimeric antibody: murine VH/VL on human IgG1 heavy and kappa light constant regions) VH: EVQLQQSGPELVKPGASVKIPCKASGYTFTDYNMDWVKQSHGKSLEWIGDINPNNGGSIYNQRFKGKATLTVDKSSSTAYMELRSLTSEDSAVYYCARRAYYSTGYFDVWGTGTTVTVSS VL: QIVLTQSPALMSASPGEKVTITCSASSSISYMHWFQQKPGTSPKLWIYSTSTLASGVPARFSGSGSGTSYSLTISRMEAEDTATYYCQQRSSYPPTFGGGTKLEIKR
Reply text: 0.05

Inquiry: Again, but for S009-F2.47.1 (antibody, human IgG1, kappa, V domains shown, Human-murine chimeric antibody: murine VH/VL on human IgG1 heavy and kappa light constant regions) VH: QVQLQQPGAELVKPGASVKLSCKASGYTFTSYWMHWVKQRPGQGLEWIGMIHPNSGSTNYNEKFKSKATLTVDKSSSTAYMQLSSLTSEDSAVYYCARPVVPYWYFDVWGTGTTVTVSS VL: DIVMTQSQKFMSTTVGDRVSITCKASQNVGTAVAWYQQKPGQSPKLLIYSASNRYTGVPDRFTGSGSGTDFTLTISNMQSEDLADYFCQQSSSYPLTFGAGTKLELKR
Reply text: 0.06

Inquiry: Again, but for S009-F2.13.3 (antibody, human IgG1, kappa, V domains shown, Human-murine chimeric antibody: murine VH/VL on human IgG1 heavy and kappa light constant regions) VH: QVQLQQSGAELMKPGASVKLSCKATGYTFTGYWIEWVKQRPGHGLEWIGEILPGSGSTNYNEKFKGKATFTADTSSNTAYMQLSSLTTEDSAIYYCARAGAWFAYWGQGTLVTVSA VL: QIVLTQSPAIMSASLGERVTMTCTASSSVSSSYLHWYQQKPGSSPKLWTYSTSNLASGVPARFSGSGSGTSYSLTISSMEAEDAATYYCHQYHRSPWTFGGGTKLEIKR
Reply text: 0.05

Inquiry: Again, but for S009-F2.38.12 (antibody, human IgG1, kappa, V domains shown, Human-murine chimeric antibody: murine VH/VL on human IgG1 heavy and kappa light constant regions) VH: QVQLQQPGTELVKPGASVKLSCKASGYTFTSYWMHWVKQRPGQGLEWIGNINPSNGGTNYNEKIKNKATLTVDKSSSTAYMQLSSLTSEDSAVYYCARWNYYGNYPFDYWGQGTTLTVSS VL: DIVMTQSQKFMSTTVGDRVSITCKASQNVGTAVAWYQQKPGQSPKLLIYSASNRYTGVPDRFTGSGSGTDFTLTISNMQSEDLADYFCQQYSSYPLTFGAGTKLELKR
Reply text: 0.05
